# method-summary: chemical genetic growth profiling, strain panel (AID 1159580);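 also: tested at 20 µM; growth read once vehicle control cultures reached saturation at 30 °C; 1 = growth at the plate median or of vehicle wells; lower values mean less growth of the strain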
# protocol-conditions: S. cerevisiae deletion strains, growth OD, locus YCL061C, strain MRC1, stronger effect = lower value
In all, about 5,500 compounds went through this assay and about 2,000 (36%) were called active. Inconclusive results (about 18%) are left out. The list shows a part of the results.
Listed next: entries and their corresponding normalized growth.

{"molecule": "CN(C)CC[C@H](c1ccc(Cl)cc1)c1ccccn1", "normalized growth": 1}
{"molecule": "CC(C)(C)NCC(O)COc1cccc2c1CCCC2=O (stereo not given)", "normalized growth": 0.957}
{"molecule": "C[C@@H]1CC[C@@]23CCC4(C)[C@@](C=CC5[C@@]6(C)CC[C@H](O)C(C)(C)C6CC[C@]54C)(OC2=O)C3[C@H]1C (stereo not given in full)", "normalized growth": 0.991}
{"molecule": "NCCCC(O)(P(=O)(O)O)P(=O)(O)O", "normalized growth": 0.976}
{"molecule": "C[C@@H]1CC[C@@]23CCC4(C)[C@@](C=CC5[C@@]6(C)CCC(=O)C(C)(C)C6CC[C@]54C)(OC2=O)C3[C@H]1C (stereo not given in full)", "normalized growth": 1.01}
